Measured GI50 values are reported for all entries that follow.
tested on: HCC-2998 colon; experiment: NCI tumour cell line growth inhibition, 48 h
OBSERVED PROPERTY: GI50

[[record]]
smiles_record = "CCCCN1C=CCN(CCCC)C1"
result = "34 µM"

[[record]]
smiles_record = "N#Cc1cc(-c2ccnc(Nc3ccc(NC(=O)CCl)cc3)n2)ccc1N1CCCC1"
result = "4.96 µM"

[[record]]
smiles_record = "O=C1NC(=O)/C(=C/c2ccc3ncccc3c2)S1"
result = "> 25 µM"

[[record]]
smiles_record = "CN(C)CCCNc1nc2ccccc2c2c(=O)c3cc(F)ccc3sc12"
result = "1.67 µM"

[[record]]
smiles_record = "O=C(CCCBr)Nc1ccccc1C#C/C=C\\C#Cc1ccccc1C(F)(F)F"
result = "7.25 µM"

[[record]]
smiles_record = "Cn1c([N+](=O)[O-])cnc1/C=C1\\Oc2ccc(Br)cc2C1=O"
result = "0.995 µM"

[[record]]
smiles_record = "O=C(/C=C/c1c(-c2ccccc2)[nH]c2ccccc12)S(=O)(=O)c1ccccc1"
result = "17.5 µM"

[[record]]
smiles_record = "COC1=C(C)C(=O)N2[C@@H]1[C@H](c1ccccc1)OC21C=CC(=O)C=C1"
result = "5.86 µM"


Sourced from PubChem BioAssay (NCI)
